Test system: MCF7 cell line
Test: In vitro cytotoxic activity, MTT method, MCF7
Format: cell-based, human
Conditions: MCF7, 1.562 µMol
experimental_endpoint: Viability % (%)
The reply should be a number in %, with the unit left off.

Please review the entries below; each comes with its answer.
{"compound": "CC(=O)C1C(c2ccc(N(C)C)cc2)c2c(C)nc(SCC(=O)Nc3ccccc3)c(C#N)c2CC1(C)O (stereo not shown) [Compound 7a]", "Viability % [%]": 66.18}
{"compound": "CC(=O)c1ccc(NC(=O)CSc2nc(C)c3c(c2C#N)CC(C)(O)C(C(C)=O)C3c2ccc(N(C)C)cc2)cc1 (stereo not shown) [Compound 7d]", "Viability % [%]": 34.31}
{"compound": "CC(=O)C1C(c2ccc(N(C)C)cc2)c2c(C)nc(SCC#N)c(C#N)c2CC1(C)O (stereo not shown) [Compound 6]", "Viability % [%]": 23.65}

Please give measured Viability % of the following entry: CCOC(=O)CSc1nc(C)c2c(c1C#N)CC(C)(O)C(C(C)=O)C2c1ccc(N(C)C)cc1 (stereo not shown) [Compound 4]
76.59

Kindly indicate its recorded Viability %. Item: CC(=O)C1C(c2ccc(N(C)C)cc2)c2c(C)nc(SCC(N)=O)c(C#N)c2CC1(C)O (stereo not shown) [Compound 5]
22.47

Supply recorded Viability % for CC(=O)C1C(c2ccc(N(C)C)cc2)c2c(C)[nH]c(=S)c(C#N)c2CC1(C)O (stereo not shown) [Compound 1] here.
53.92

Tell me Viability % reported for CSc1nc(C)c2c(c1C#N)CC(C)(O)C(C(C)=O)C2c1ccc(N(C)C)cc1 (stereo not shown) [Compound 3]
17.2

Answer with reported Viability % of COc1cccc2c1C(=O)c1c(O)c3c(c(O)c1C2=O)C[C@@](O)(C(=O)CO)C[C@@H]3O[C@H]1C[C@H](N)[C@H](O)[C@H](C)O1 [Doxorubicin, reference compound]
19.77

Determine its reported Viability %: CC(=O)C1C(c2ccc(N(C)C)cc2)c2c(C)nc(SCC(=O)Nc3ccc(C)cc3)c(C#N)c2CC1(C)O (stereo not shown) [Compound 7b]
17.61

Note Viability % for the compound shown: CC(=O)C1C(c2ccc(N(C)C)cc2)c2c(C)nc(SCC(=O)Nc3ccc(Cl)cc3)c(C#N)c2CC1(C)O (stereo not shown) [Compound 7c]
63.32
